- TEST_DETAILS: Maximum absorption wavelength (λmax) after color development, spectrophotometer MCPD3000
- Type: physicochemical
- CONDITION_INFO: binder sheet (binder method), urethaneurea resin photochromic layer between polycarbonate sheets, 0.25 mmol per 100 parts by mass resin
# Maximum absorption wavelength (nm) annotations
Your answer is read as nm, so omit the unit and give the number.

COMPOUND	OUTPUT_UNIT	Maximum absorption wavelength (nm)
COc1ccc(C2(c3ccc(OC)cc3)C=Cc3c4c(c5cc(N6CCc7ccccc7C6)c(OC)cc5c3O2)-c2ccccc2C4(C)C)cc1 [Formula (F), reference compound]	nm	481
CCCC1(CCC)c2ccccc2-c2c1c1c(c3cc(OC)c(N(C)c4ccccc4)cc23)OC(c2ccc(OC)cc2)(c2ccc(OC)cc2)C=C1 [Example 3 Formula (32)]	nm	498

# evaluate next
Name the recorded Maximum absorption wavelength (nm) of the item COc1ccc(C2(c3ccc(OC)cc3)C=Cc3c4c(c5cc(N(c6ccccc6)c6ccccc6)c(OC)cc5c3O2)-c2ccccc2C4(C)C)cc1 [Example 2 Formula (30)] in your answer.
510

###

- TEST_DETAILS: High-temperature color development rate (A35/A23×100), temperature dependency
- Format: physicochemical
- CONDITION_INFO: binder sheet (binder method)
A35/A23 *100 (%) listing for selected compounds.

Previously resolved entries follow.
COMPOUND	A35/A23 *100 (%)
COc1ccc(C2(c3ccc(OC)cc3)C=Cc3c4c(c5cc(N(C)c6ccccc6)c(OC)cc5c3O2)-c2ccccc2C4(C)C)cc1	69%
CCCCC1(CCCC)c2ccccc2-c2c1c1c(c3cc(OC)c(N(c4ccc(F)cc4)c4ccc(F)cc4)cc23)OC(c2ccc(OC)cc2)(c2ccc(OC)cc2)C=C1	67%
COc1ccc(C2(c3ccc(OC)cc3)C=Cc3c4c(c5cc(N(c6ccccc6)c6ccccc6)c(OC)cc5c3O2)-c2ccccc2C4(C)C)cc1	70%
CCCCOc1ccc(C2(c3ccc(OC)cc3)C=Cc3c4c(c5cc(N(C)c6ccccc6)c(OC)cc5c3O2)-c2ccc(-c3ccc(C(C)(C)C)cc3)cc2C4(CC)CC)cc1 (centres unmarked)	71%
CCCOc1ccc(C2(c3ccc(OCCC)cc3)C=Cc3c4c(c5cc(N6CCOc7cc(C)ccc76)c(OC)cc5c3O2)-c2ccc(-c3ccc(C(F)(F)F)cc3)cc2C4(CCOC)CCOC)cc1	65%
COc1ccc(C2(c3ccc(OC)cc3)C=Cc3c4c(c5cc(N6CCCCC6)c(OC)cc5c3O2)-c2ccccc2C4(C)C)cc1 [Formula (E), reference compound]	70%
CCCC1(CCC)c2ccccc2-c2c1c1c(c3cc(OC)c(N4CCOc5ccccc54)cc23)OC(c2ccc(OC)cc2)(c2ccc(OC)cc2)C=C1	66%
COc1ccc(C2(c3ccc(OC)cc3)C=Cc3c4c(c5cc(N6CCOc7ccccc76)c(OC)cc5c3O2)-c2ccccc2C4(C)C)cc1	67%
COc1ccc(C2(c3ccc(OC)cc3)C=Cc3c4c(c5cc(N(C)c6ccc(F)cc6)c(OC)cc5c3O2)-c2ccccc2C4(C)C)cc1	66%
COc1ccc(C2(c3ccc(N4CCOCC4)cc3)C=Cc3c4c(c5cc(N6CCOc7ccccc76)c(C)cc5c3O2)-c2ccc(OC)cc2C4(CCCCF)CCCCF)cc1 (centres unmarked)	66%

Identify measured A35/A23 *100 (%) associated with CCCOc1ccc(C2(c3ccc(OCCC)cc3)C=Cc3c4c(c5cc(N(CCOC)c6ccccc6)c(OC)cc5c3O2)-c2ccccc2C42CCCCCCC2)cc1
71%

###

- TEST_DETAILS: Residual rate (A90/A0×100) after 90 h accelerated deterioration in xenon weather meter X25, color developing durability
- Assay type: physicochemical
- CONDITION_INFO: photochromic laminate prepared by coating method; after 90 h accelerated deterioration
- Excerpt: • [1] Maximum Absorption Wavelength (λmax): The maximum absorption wavelength after color development, measured using a spectrophotometer (instantaneous multichannel photodetector MCPD3000) manufactured by Otsuka Electronics Co., Ltd. was used as an indicator for the color tone during the color development. • [2] […]
Each item that follows carries a reported Residual rate.
Your answer should be a plain number; it is taken to be in %.

Answer with the recorded Residual rate for the molecule listed here: CCC1(CC)c2cc(C)ccc2-c2c1c1c(c3cc(C)c(N4CCc5ccccc54)cc23)OC(c2ccc(C)cc2)(c2ccc(OC)cc2)C=C1 (centres unmarked) [Formula (42A)]
70

Given CCCC1(C)c2cc(Oc3ccccc3)ccc2-c2c1c1c(c3cc(OC)c(N4CCc5ccccc54)cc23)OC(c2ccc(OC)cc2)(c2ccc3c(c2)CCO3)C=C1 (centres unmarked) [Formula (70A)] , respond with its Residual rate.
71

Kindly indicate its recorded Residual rate. Item: CCC1(CC)CCC2(CC1)c1cc(OC(F)(F)F)ccc1-c1c2c2c(c3cc(OC)c(N4CCc5ccccc54)cc13)OC(c1ccc(OC)cc1)(c1ccc(OCCCO[Si](C)(C)CC[Si](O[Si](C)(C)C)(O[Si](C)(C)C)O[Si](C)(C)C)cc1)C=C2 (centres unmarked) [Formula (74A)]
72

Return value of Residual rate for input COCCCC1(CCCOC)c2ccccc2-c2c1c1c(c3cc(OC)c(N4CC(C)c5ccccc54)cc23)OC(c2ccc(OC)cc2)(c2ccc(OC)cc2)C=C1 (centres unmarked) [Formula (39A)] , no commentary.
71

Specify measured Residual rate for CCCOc1ccc(C2(c3ccc(OC)cc3)C=Cc3c4c(c5cc(N6CCc7ccccc76)c(C)cc5c3O2)-c2ccccc2C4(CCC)CCC)cc1 (centres unmarked) [Formula (31A)] .
67

###

- TEST_DETAILS: High-temperature color development rate (A35/A23×100), temperature dependency
- Assay type: physicochemical
- CONDITION_INFO: photochromic cured product, thickness 1 mm (kneading method)
METRIC: A35/A23 *100 (%)
Give just the numeric value; % need not be written.

Worked cases, A35/A23 *100 given:
COMPOUND	A35/A23 *100, %
COc1ccc(C2(c3ccc(OC)cc3)C=Cc3c4c(c5cc(N6CCc7ccccc76)c(-c6ccc(OC)cc6OC)cc5c3O2)-c2ccccc2C4(C)C)cc1 [Formula (I), reference compound]	73
COc1ccc(C2(c3ccc(OC)cc3)C=Cc3c4c(c5cc(N6CCOCC6)c(OC)cc5c3O2)-c2ccccc2C4(C)C)cc1 [Formula (A), reference compound]	70

Supply recorded A35/A23 *100 for COCCOCCOCCC1(CCOCCOCCOC)c2ccccc2-c2c1c1c(c3cc(OC)c(N4CCc5cc(F)ccc54)cc23)OC(c2ccc(OC)cc2)(c2ccc(OC)cc2)C=C1 [Formula (50A)] here.
71

###

- TEST_DETAILS: 35°C color optical density (A35): absorbancy difference ε(240)-ε(0) after 240 s light irradiation at 35°C
- Assay type: physicochemical
- CONDITION_INFO: photochromic laminate by coating method, 240 s irradiation
METRIC: A35 (-)

# example entries with known answers
MOLECULE	A35 (-)
COCCCCC1(CCCCOC)c2ccccc2-c2c1c1c(c3cc(C)c(N(C)c4ccccc4)cc23)OC(c2ccc(C)cc2)(c2ccc(OC)cc2)C=C1 (centres unmarked) [Example 5 Formula (43)]	0.79 -
CCCCOc1ccc(C2(c3ccc(OC)cc3)C=Cc3c4c(c5cc(N(C)c6ccccc6)c(OC)cc5c3O2)-c2ccc(-c3ccc(C(C)(C)C)cc3)cc2C4(CC)CC)cc1 (centres unmarked) [Example 45 Formula (94)]	0.86 -
CCCOc1ccc(C2(c3ccc(OC)cc3)C=Cc3c4c(c5cc(N(C)c6ccccc6)c(C)cc5c3O2)-c2ccc(C)cc2C4(CCCCOC)CCCCOC)cc1 (centres unmarked) [Example 17 Formula (79)]	0.71 -
CCCCN(c1ccccc1)c1cc2c3c(c4c(c2cc1OC)OC(c1ccc(OC)cc1)(c1ccc(OCCC)cc1)C=C4)C(CC)(CC)c1cc(OC(F)(F)F)ccc1-3 (centres unmarked) [Example 51 Formula (117)]	0.61 -
COc1ccc(C2(c3ccc(OC)cc3)C=Cc3c4c(c5cc(N(C)c6ccc(F)cc6)c(OC)cc5c3O2)-c2ccccc2C4(C)C)cc1 [Example 4 Formula (34)]	0.78 -

// fetch A35 (-) given entry CCCCCCC1(CCCCCC)c2cc(Oc3ccccc3)ccc2-c2c1c1c(c3cc(OC)c(N(c4ccccc4)c4ccc(C)cc4)cc23)OC(c2ccc(OC)cc2)(c2ccc(OCCCC)cc2)C=C1 (centres unmarked) [Example 52 Formula (119)]
1.34 -

Query A35 (-) for CCCC1(CCC)c2ccccc2-c2c1c1c(c3cc(OC)c(N4CCOc5ccccc54)cc23)OC(c2ccc(OC)cc2)(c2ccc(OC)cc2)C=C1 [Example 10 Formula (59)]
0.86 -

State its A35 (-): CCCC1(CCC)c2ccccc2-c2c1c1c(c3cc(OC)c(N(c4ccccc4)c4ccccc4)cc23)OC(c2ccc(C)cc2)(c2ccc(N(C)c3ccccc3)cc2)C=C1 (centres unmarked) [Example 22 Formula (89)]
1.03 -
